These entries and their values trace back to patent US12428391B2.

Protocol: Pharmacokinetic evaluation of compounds in mice
Type: in vivo
Stated Conditions: mouse, plasma; IV 3 mg/kg, C57BL/6J mice
Observable: half-life

// half-life lookup, compound = CS(C)(=O)=Nc1cnc(S(=N)(=O)NC(=O)Nc2c3c(cc4c2CCC4)CCC3)s1 (single isomer, unassigned) , result: 2.1 h

* * *

Protocol: Pharmacokinetic evaluation of compounds in mice
Format: in vivo
Stated Conditions: mouse, plasma; PO 20 mg/kg, C57BL/6J mice
Observable: Cmax (µM)
Give the quantity in µM, number only.

Value of Cmax reported for the compound CS(C)(=O)=Nc1cnc(S(=N)(=O)NC(=O)Nc2c3c(cc4c2CCC4)CCC3)s1 (single isomer, unassigned) is 102

* * *

Target: NLRP3 (Homo sapiens, UniProt Q96P20)
Construct: endogenous in cells
Sequence (Q96P20 whole entry): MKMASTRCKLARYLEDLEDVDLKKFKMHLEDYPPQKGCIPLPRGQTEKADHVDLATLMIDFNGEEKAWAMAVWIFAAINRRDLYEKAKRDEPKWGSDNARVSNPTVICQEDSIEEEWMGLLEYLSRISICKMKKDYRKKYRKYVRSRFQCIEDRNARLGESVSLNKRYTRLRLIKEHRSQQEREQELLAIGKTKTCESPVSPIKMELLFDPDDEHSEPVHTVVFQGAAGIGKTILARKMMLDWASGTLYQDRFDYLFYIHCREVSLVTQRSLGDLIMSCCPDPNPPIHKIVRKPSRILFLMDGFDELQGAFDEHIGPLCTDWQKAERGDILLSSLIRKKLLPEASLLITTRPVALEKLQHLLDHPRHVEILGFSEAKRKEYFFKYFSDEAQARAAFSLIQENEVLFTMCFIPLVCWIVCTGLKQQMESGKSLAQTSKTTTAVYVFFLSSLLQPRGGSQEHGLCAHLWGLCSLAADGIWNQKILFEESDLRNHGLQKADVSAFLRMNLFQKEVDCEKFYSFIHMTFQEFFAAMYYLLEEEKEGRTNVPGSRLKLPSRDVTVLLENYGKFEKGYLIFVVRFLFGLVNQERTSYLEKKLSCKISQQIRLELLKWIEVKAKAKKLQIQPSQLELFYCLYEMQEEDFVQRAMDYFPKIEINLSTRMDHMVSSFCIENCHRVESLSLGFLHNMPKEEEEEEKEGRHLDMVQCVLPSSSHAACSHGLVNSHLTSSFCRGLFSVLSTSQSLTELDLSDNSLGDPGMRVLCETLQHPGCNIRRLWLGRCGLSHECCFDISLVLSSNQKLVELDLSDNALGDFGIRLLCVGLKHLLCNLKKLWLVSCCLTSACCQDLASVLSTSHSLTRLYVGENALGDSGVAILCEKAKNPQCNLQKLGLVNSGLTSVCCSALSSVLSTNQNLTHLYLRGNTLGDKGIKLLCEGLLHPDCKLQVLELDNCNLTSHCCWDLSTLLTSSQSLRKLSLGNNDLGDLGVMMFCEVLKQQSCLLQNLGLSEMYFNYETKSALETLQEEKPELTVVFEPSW
Protocol: IC50 experiment for the detection of NLRP3 antagonist using THP-1 cells (IL-1β secretion, PMA/LPS/ATP)
Observable: pIC50
Friendly reminder that pIC50 comes from taking -log10 of the concentration in mol/L.

Examples with answers:
| Compound | pIC50 |
| --- | --- |
| COc1cc(-c2ccc3c(c2NC(=O)NS(=O)(=O)c2ccc(N=S(C)(C)=O)s2)CCC3)ccn1 [Compound 3] | 8.00 |
| COc1cc(-c2cccc(C(C)C)c2NC(=O)NS(=O)(=O)c2ccc(N=S(C)(C)=O)s2)ccn1 [Compound 2] | 7.40 |
| CS(C)(=O)=Nc1ccc(S(=N)(=O)NC(=O)Nc2c3c(cc4c2CCC4)CCC3)s1 (single isomer, unassigned) [Compound 4a] | 7.47 |
| COc1cc(-c2ccc3c(c2NC(=O)NS(=N)(=O)c2ccc(N=S(C)(C)=O)s2)CCC3)ccn1 (single isomer, unassigned) [Compound 5a] | 8.13 |
| CS(C)(=O)=Nc1ccc(S(=N)(=O)NC(=O)Nc2c(-c3ccnc(C#N)c3)ccc3c2CCC3)s1 (stereo not drawn) [Compound 8] | 7.56 |

Form: item CS(C)(=O)=Nc1cnc(S(=N)(=O)NC(=O)Nc2c3c(cc4c2CCC4)CCC3)s1 (single isomer, unassigned) [Compound 7a] ; test system NLRP3 (Homo sapiens, UniProt Q96P20); pIC50: 8.01

* * *

Protocol: Pharmacokinetic evaluation of compounds in mice
Format: in vivo
Stated Conditions: mouse, plasma; IV 3 mg/kg, C57BL/6J mice
Observable: clearance (L/h/kg)
State the answer as a number, implicitly in L/h/kg.

So for CS(C)(=O)=Nc1cnc(S(=N)(=O)NC(=O)Nc2c3c(cc4c2CCC4)CCC3)s1 (single isomer, unassigned) [Compound 7a] , the logged clearance turned out to be 0.101

* * *

Protocol: Pharmacokinetic evaluation of compounds in mice
Assay type: in vivo
Stated Conditions: mouse, plasma; PO 20 mg/kg, C57BL/6J mice
Observable: Tmax (min)
Field: numeric (min). Do not append units.

// recorded Tmax for CS(C)(=O)=Nc1cnc(S(=N)(=O)NC(=O)Nc2c3c(cc4c2CCC4)CCC3)s1 (single isomer, unassigned) [Compound 7a] : 30
